# Experimental system: human V2 receptor (Homo sapiens, UniProt P30518)
# Construct: expressed in transfected cells; host or cells: CHO K1 (ATCC) expressing firefly luciferase under a CRE-responsive promoter
# Sequence (P30518 whole entry): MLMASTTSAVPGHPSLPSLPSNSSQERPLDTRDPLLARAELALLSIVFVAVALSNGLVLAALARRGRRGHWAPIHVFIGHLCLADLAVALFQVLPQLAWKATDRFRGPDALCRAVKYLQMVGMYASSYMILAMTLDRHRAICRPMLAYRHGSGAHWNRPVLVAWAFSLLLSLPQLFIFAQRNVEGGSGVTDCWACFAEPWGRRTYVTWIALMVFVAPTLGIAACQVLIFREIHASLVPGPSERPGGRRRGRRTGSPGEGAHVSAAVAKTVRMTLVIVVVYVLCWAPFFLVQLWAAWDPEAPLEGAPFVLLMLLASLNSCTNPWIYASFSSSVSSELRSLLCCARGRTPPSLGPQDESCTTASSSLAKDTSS
# Assay method text: Cellular in vitro assay for determining vasopressin receptor activity, V2 receptor cell line (CHO, CRE-luciferase)
# Assay type: cell-based
# Condition details: CHO cell line transfected with human V2 receptor; [Arg8]-vasopressin at EC50 concentration, 3 hours; read-out: IC50 hV2
pIC50 values by entry
Convention used: pIC50 is expressed as -log10 of the molar concentration.

Worked set:
Task: Reported pIC50, compound CC1CC1C(=O)Nc1ncccc1-n1cnc(Cn2nc(-c3ccc(Cl)cc3)n(C[C@H](O)C(F)(F)F)c2=O)n1 (stereo partly drawn) : ____
Result: 6.62

Task: Returns the measured pIC50 for the input compound. Input: COC1CCN(C(=O)c2ccccc2-n2cnc(Cn3nc(-c4ccc(Cl)cc4)n(C[C@H](O)C(F)(F)F)c3=O)n2)CC1
Result: 5.46

Task: Record request: pIC50 value, item NC(=O)[C@H]1CCCN1c1ccncc1-n1cnc(Cn2nc(-c3ccc(Cl)cc3)n(C[C@H](O)C(F)(F)F)c2=O)n1
Result: 6.16

Task: Consider the compound shown here: O=C(Nc1ccncc1-n1cnc(Cn2nc(-c3ccc(Cl)cc3)n(C[C@H](O)C(F)(F)F)c2=O)n1)C1CC1(F)F (mixture of isomers) What is its recorded pIC50?
Result: 6.44

Task: Given the compound O=C(Nc1ncccc1-n1cnc(Cn2nc(-c3ccc(Cl)cc3)n(C[C@H](O)C(F)(F)F)c2=O)n1)C1CCS(=O)(=O)C1 (mixture of isomers) , what is its reported pIC50?
Result: 6.47

Now examine the next entry.
Task: Query: pIC50; subject: CCC(C)(O)C(=O)Nc1ncccc1-n1cnc(Cn2nc(-c3ccc(Cl)cc3)n(C[C@H](O)C(F)(F)F)c2=O)n1 (stereo partly drawn)
Result: 6.37
